- system-tested: MITF(180-296) (Homo sapiens)
- method-summary: Surface plasmon resonance
- Type: binding
- condition-label: SPR KD,eq, 25 °C, equilibrium affinity
- Sequence (O75030 287-403): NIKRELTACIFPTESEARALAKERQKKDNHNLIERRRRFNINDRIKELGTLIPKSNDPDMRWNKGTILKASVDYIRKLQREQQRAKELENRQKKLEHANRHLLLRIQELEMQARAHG
Catalogue of Kd readings, one per entry.
property-measured: Kd (µM)

[
  {
    "compound": "O=C(O)c1cc2ccc(C#CC3(O)CCCCC3)cc2n1-c1ccccc1 [compound 6]",
    "unit-abbreviation": "µM",
    "reading": 8
  },
  {
    "compound": "Cc1cc(C#CC2(O)CCCCC2)cc2c1cc(C(=O)O)n2-c1ccccc1 [compound 7]",
    "unit-abbreviation": "µM",
    "reading": 4
  },
  {
    "compound": "O=C(O)c1cc2ccc(C#CC3(O)CCCCC3)cc2n1-c1cccc(Cl)c1 [compound 8]",
    "unit-abbreviation": "µM",
    "reading": 1.9
  }
]

###

- system-tested: MYC/MAX (Homo sapiens, UniProt P01106+P61244)
- Sequence (P01106 368-449): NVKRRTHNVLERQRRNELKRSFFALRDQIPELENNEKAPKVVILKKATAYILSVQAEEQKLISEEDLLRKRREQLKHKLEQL
- Sequence (P61244 22-102): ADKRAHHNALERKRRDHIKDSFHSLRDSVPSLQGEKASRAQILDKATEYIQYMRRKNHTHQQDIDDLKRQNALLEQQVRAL
- method-summary: NMR chemical shift perturbation
pKd: −log10 of the molar value.

[
  {
    "molecule": "Cc1cc(C#CC2(O)CCCCC2)cc2c1cc(C(=O)O)n2-c1ccccc1 [compound 7]",
    "pKd": "< 3.70"
  },
  {
    "molecule": "O=C(O)c1cc2ccc(C#CC3(O)CCCCC3)cc2n1-c1ccccc1 [compound 6]",
    "pKd": "< 3.70"
  }
]

###

The entries below are paired with their reported Kd.
- system-tested: MITF(217-296) (Homo sapiens)
- method-summary: Protein-observed NMR titration
- Type: binding
- condition-label: KD (MITF NMR KD), protein-observed NMR titration

[
  {
    "compound": "O=C(O)c1[nH]c2ccc(Cl)cc2c1-c1ccccc1 [compound 3]",
    "Kd": "327 µM"
  },
  {
    "compound": "O=C(O)c1[nH]c2ccc(Cl)cc2c1-c1ccc(F)cc1 [compound 5]",
    "Kd": "104 µM"
  }
]

###

- system-tested: MITF(217-296) (Homo sapiens, UniProt O75030)
- method-summary: 19F NMR reporter assay
pKi: −log10 of the molar value.

[
  {
    "compound": "O=C(O)c1cc2ccc(C#CC3(O)CCCCC3)cc2n1-c1ccccc1 [compound 6]",
    "pKi": 5.59
  }
]

###

- system-tested: MITF(180-296) (Homo sapiens)
- method-summary: Surface plasmon resonance
- Assay type: binding
- condition-label: kinetic affinity constant (KD,kin), SPR, 25 °C, from kon and koff

[
  {
    "input-smiles": "O=C(O)c1cc2ccc(C#CC3(O)CCCCC3)cc2n1-c1cccc(Cl)c1",
    "system-tested": "MITF(180-296) (Homo sapiens)",
    "Kd [µM]": 1.8
  }
]

###

- system-tested: MITF(217-296) (Homo sapiens)
- method-summary: Protein-observed NMR titration
- Format: binding
- condition-label: KD, protein-observed NMR titrations
pKd: −log10 of the molar value.

[
  {
    "input-smiles": "O=C(O)c1cc2cc(F)ccc2n1-c1ccc(F)cc1",
    "system-tested": "MITF(217-296) (Homo sapiens)",
    "pKd": 3.00
  }
]

###

- system-tested: MITF(180-296) (Homo sapiens, UniProt O75030)
- Sequence (O75030 300-403 limits assumed): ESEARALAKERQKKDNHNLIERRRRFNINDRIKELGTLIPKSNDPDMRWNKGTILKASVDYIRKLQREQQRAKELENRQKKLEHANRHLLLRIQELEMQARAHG
- method-summary: Isothermal titration calorimetry
- Assay type: binding
- condition-label: ITC KD, 25 °C, n = 2, mean ± SD
pKd: −log10 of the molar value.

[
  {
    "compound": "O=C(O)c1cc2ccc(C#CC3(O)CCCCC3)cc2n1-c1cccc(Cl)c1 [compound 8]",
    "system-tested": "MITF(180-296) (Homo sapiens, UniProt O75030)",
    "pKd": 6.33
  }
]

Attribution: paper PMC12808237
